# measurement-target: Metabotropic glutamate receptor 1 (Homo sapiens)
# experiment-notes: Positive allosteric modulation of human mGlu1 receptor by cell based calcium mobilization
# Assay type: functional
# condition-context: read-out: EC50
# Sequence (Q13255 whole entry): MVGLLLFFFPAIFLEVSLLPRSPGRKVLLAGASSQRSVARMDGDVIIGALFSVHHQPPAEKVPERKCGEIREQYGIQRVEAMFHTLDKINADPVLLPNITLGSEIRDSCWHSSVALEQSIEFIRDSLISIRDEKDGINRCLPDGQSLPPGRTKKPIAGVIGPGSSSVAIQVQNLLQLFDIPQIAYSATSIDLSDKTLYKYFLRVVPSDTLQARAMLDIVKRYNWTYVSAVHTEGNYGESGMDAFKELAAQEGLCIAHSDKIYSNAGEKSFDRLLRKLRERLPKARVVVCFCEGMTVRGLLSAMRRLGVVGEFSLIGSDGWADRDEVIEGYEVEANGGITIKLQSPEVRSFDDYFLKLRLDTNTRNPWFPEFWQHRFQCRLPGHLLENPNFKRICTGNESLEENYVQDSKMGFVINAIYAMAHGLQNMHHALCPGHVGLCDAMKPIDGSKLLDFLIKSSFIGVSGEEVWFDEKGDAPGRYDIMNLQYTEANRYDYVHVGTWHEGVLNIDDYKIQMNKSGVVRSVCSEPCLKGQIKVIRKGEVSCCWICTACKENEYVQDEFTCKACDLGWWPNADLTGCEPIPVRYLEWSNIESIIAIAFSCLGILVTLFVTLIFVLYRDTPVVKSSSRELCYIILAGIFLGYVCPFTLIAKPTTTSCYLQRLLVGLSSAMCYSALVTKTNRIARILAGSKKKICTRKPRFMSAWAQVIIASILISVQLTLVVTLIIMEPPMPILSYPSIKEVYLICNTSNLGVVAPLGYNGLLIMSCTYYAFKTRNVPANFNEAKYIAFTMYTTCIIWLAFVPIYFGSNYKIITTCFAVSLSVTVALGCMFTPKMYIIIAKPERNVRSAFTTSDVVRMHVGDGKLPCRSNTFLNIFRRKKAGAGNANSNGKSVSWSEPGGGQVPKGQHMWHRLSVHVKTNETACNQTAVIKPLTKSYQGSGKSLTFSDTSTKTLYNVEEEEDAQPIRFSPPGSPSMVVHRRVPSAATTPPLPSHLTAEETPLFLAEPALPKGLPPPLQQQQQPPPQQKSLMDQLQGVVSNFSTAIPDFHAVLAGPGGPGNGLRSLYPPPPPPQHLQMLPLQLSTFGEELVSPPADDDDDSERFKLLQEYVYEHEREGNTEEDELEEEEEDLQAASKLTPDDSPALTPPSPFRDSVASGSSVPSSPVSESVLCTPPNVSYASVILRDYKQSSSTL
Quick rule for you: EC50 under 1000 nM gets Criterion met, anything else gets Criterion not met.

[[record]]
structure = "Cn1ccnc1C(=O)Nc1ccc(N2C(=O)c3cccc(Cl)c3C2=O)c(Cl)c1"
group = "Criterion not met"

[[record]]
structure = "Cc1cn[nH]c1C(=O)Nc1ccc(N2C(=O)c3cccc(F)c3C2=O)c(Cl)c1"
group = "Criterion met"

[[record]]
structure = "Cc1ccc2c(c1)C(=O)N(c1ccc(NC(=O)c3ncsc3C)cc1Cl)C2=O"
group = "Criterion met"

[[record]]
structure = "Cn1cccc1C(=O)Nc1ccc(N2C(=O)c3ccccc3C2=O)c(Cl)c1"
group = "Criterion not met"

[[record]]
structure = "Cn1ccnc1C(=O)Nc1ccc(N2C(=O)c3cccc(F)c3C2=O)c(Cl)c1"
group = "Criterion not met"

[[record]]
structure = "Cc1ocnc1C(=O)Nc1ccc(N2C(=O)c3ccc(F)cc3C2=O)c(Cl)c1"
group = "Criterion met"

[[record]]
structure = "Cc1ocnc1C(=O)Nc1ccc(N2C(=O)c3cccc(Cl)c3C2=O)c(Cl)c1"
group = "Criterion not met"

[[record]]
structure = "Cc1[nH]ccc1C(=O)Nc1ccc(N2C(=O)c3ccccc3C2=O)c(Cl)c1"
group = "Criterion not met"

[[record]]
structure = "CN1CCC[C@H]1C(=O)Nc1ccc(N2C(=O)c3ccccc3C2=O)c(Cl)c1"
group = "Criterion not met"

[[record]]
structure = "Cn1ccnc1C(=O)Nc1ccc(N2C(=O)c3cccnc3C2=O)c(Cl)c1"
group = "Criterion not met"

[[record]]
structure = "Cc1sccc1C(=O)Nc1ccc(N2C(=O)c3ccccc3C2=O)c(Cl)c1"
group = "Criterion not met"

[[record]]
structure = "Cc1cn[nH]c1C(=O)Nc1ccc(N2C(=O)c3ccc(F)cc3C2=O)c(Cl)c1"
group = "Criterion met"

[[record]]
structure = "Cc1ocnc1C(=O)Nc1ccc(N2C(=O)c3cccc(F)c3C2=O)c(Cl)c1"
group = "Criterion met"

[[record]]
structure = "Cn1ccnc1C(=O)Nc1ccc(N2C(=O)c3ccc(Cl)cc3C2=O)c(Cl)c1"
group = "Criterion met"

[[record]]
structure = "Cc1ccc2c(c1)C(=O)N(c1ccc(NC(=O)c3ncoc3C)cc1Cl)C2=O"
group = "Criterion met"

[[record]]
structure = "Cc1scnc1C(=O)Nc1ccc(N2C(=O)c3cccc(Cl)c3C2=O)c(Cl)c1"
group = "Criterion not met"

[[record]]
structure = "Cn1ccnc1C(=O)Nc1ccc(N2C(=O)c3ccccc3C2=O)c(Cl)c1"
group = "Criterion met"

[[record]]
structure = "Cc1ocnc1C(=O)Nc1ccc(N2C(=O)c3ccccc3C2=O)c(Cl)c1"
group = "Criterion not met"

[[record]]
structure = "Cc1ccsc1C(=O)Nc1ccc(N2C(=O)c3ccccc3C2=O)c(Cl)c1"
group = "Criterion not met"

[[record]]
structure = "Cc1scnc1C(=O)Nc1ccc(N2C(=O)c3ccc(F)cc3C2=O)c(Cl)c1"
group = "Criterion met"

[[record]]
structure = "Cc1ncsc1C(=O)Nc1ccc(N2C(=O)c3ccccc3C2=O)c(Cl)c1"
group = "Criterion not met"


====

# measurement-target: UniProt Q14833
# Sequence (Q14833 whole entry): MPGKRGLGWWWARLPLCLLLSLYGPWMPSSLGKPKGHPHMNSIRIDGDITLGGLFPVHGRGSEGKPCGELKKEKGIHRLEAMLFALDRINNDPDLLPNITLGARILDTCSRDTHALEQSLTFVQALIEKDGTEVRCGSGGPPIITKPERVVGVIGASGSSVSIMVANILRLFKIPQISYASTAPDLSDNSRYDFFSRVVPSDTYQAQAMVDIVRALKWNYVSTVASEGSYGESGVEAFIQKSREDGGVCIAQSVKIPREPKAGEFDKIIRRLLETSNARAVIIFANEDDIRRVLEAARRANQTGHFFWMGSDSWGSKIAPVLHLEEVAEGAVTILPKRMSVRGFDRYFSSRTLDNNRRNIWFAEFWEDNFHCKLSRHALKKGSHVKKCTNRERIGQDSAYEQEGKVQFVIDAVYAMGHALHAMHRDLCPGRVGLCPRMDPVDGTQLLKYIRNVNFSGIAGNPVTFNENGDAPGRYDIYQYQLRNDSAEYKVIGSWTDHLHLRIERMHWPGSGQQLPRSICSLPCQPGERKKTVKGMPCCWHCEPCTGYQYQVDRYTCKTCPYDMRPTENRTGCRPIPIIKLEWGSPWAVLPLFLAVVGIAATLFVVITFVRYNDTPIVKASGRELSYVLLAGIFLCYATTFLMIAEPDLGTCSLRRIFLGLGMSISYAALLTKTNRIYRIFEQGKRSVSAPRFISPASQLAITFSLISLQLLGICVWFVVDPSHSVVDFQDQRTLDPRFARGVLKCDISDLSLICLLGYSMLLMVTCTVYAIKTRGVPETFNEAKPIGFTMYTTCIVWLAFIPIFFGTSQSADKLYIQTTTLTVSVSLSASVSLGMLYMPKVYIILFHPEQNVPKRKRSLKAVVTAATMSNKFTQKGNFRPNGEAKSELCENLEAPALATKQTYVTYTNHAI
# experiment-notes: Positive allosteric modulation of human mGlu4 receptor by cell based calcium mobilization
Below, each of the compounds is paired with its reported EC50 value.
observed-property: EC50 (nM)

[[record]]
structure = "Cc1ccc2c(c1)C(=O)N(c1ccc(NC(=O)c3ncoc3C)cc1Cl)C2=O"
observed_property = "EC50"
unit_spec = "nM"
relation = "="
result = 198

[[record]]
structure = "Cc1ccc2c(c1)C(=O)N(c1ccc(NC(=O)c3ncsc3C)cc1Cl)C2=O"
observed_property = "EC50"
unit_spec = "nM"
relation = "="
result = 1120

[[record]]
structure = "Cc1cn[nH]c1C(=O)Nc1ccc(N2C(=O)c3cccnc3C2=O)c(Cl)c1"
observed_property = "EC50"
unit_spec = "nM"
relation = ">"
result = 10000

[[record]]
structure = "Cc1cn[nH]c1C(=O)Nc1ccc(N2C(=O)c3ccc(Cl)cc3C2=O)c(Cl)c1"
observed_property = "EC50"
unit_spec = "nM"
relation = "="
result = 3380

[[record]]
structure = "Cc1cn[nH]c1C(=O)Nc1ccc(N2C(=O)c3cccc(Cl)c3C2=O)c(Cl)c1"
observed_property = "EC50"
unit_spec = "nM"
relation = ">"
result = 10000

[[record]]
structure = "Cn1ccnc1C(=O)Nc1ccc(N2C(=O)c3ccc(Cl)cc3C2=O)c(Cl)c1"
observed_property = "EC50"
unit_spec = "nM"
relation = "="
result = 1570

[[record]]
structure = "Cc1ocnc1C(=O)Nc1ccc(N2C(=O)c3cccnc3C2=O)c(Cl)c1"
observed_property = "EC50"
unit_spec = "nM"
relation = "="
result = 2530

[[record]]
structure = "Cn1ccnc1C(=O)Nc1ccc(N2C(=O)c3cccc(Cl)c3C2=O)c(Cl)c1"
observed_property = "EC50"
unit_spec = "nM"
relation = ">"
result = 10000


====

Below, each of the compounds is paired with its reported %max value.
# measurement-target: Metabotropic glutamate receptor 1 (Homo sapiens)
# experiment-notes: Positive allosteric modulation of human mGlu1 receptor at 10 uM by cell based calcium mobilization relative to glutamate
# Type: functional
# Sequence (Q13255 19-1194 limits assumed): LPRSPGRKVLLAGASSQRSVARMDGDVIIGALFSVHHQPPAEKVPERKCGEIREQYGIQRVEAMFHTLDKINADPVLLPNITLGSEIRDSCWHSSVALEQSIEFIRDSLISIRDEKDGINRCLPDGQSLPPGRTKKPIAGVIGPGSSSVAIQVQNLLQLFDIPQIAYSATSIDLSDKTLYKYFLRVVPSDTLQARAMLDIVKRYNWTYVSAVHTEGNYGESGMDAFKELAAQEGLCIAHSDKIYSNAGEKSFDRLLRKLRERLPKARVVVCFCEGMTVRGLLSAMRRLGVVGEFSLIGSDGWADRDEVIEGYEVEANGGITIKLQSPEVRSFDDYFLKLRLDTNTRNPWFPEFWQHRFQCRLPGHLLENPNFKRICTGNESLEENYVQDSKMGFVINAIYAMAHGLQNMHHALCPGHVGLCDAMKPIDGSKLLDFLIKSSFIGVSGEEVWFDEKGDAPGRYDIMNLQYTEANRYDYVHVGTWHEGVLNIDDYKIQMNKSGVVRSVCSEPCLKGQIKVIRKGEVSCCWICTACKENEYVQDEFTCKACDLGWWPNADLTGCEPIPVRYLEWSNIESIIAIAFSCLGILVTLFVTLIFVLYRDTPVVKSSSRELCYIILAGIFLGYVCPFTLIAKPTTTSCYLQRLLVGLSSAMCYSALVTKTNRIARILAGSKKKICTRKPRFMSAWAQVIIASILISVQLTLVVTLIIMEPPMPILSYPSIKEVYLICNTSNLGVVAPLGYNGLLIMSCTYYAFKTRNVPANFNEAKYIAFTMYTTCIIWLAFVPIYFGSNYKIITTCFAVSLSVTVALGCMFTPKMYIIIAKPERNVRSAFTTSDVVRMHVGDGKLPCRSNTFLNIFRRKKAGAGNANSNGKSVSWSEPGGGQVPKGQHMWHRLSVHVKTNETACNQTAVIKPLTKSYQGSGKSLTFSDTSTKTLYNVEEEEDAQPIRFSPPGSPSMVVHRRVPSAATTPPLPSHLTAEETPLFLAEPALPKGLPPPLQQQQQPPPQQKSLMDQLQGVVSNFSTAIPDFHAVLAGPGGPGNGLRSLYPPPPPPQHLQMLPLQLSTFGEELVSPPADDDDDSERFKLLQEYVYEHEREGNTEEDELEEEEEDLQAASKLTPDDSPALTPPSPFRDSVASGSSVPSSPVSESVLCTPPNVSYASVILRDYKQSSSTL
observed-property: %max (%)

[[record]]
structure = "Cc1ccc2c(c1)C(=O)N(c1ccc(NC(=O)c3ncsc3C)c(F)c1)C2=O"
measurement_target = "Metabotropic glutamate receptor 1 (Homo sapiens)"
observed_property = "%max"
result = 36

[[record]]
structure = "Cn1ccnc1C(=O)Nc1ccc(N2C(=O)c3ccc(F)cc3C2=O)c(Cl)c1"
measurement_target = "Metabotropic glutamate receptor 1 (Homo sapiens)"
observed_property = "%max"
result = 87

[[record]]
structure = "Cc1scnc1C(=O)Nc1ccc(N2C(=O)c3cccnc3C2=O)cc1F"
measurement_target = "Metabotropic glutamate receptor 1 (Homo sapiens)"
observed_property = "%max"
result = 42

[[record]]
structure = "Cc1cn[nH]c1C(=O)Nc1ccc(N2C(=O)c3cccc(Cl)c3C2=O)c(Cl)c1"
measurement_target = "Metabotropic glutamate receptor 1 (Homo sapiens)"
observed_property = "%max"
result = 94

[[record]]
structure = "Cc1ocnc1C(=O)Nc1ccc(N2C(=O)c3cccc(F)c3C2=O)cc1F"
measurement_target = "Metabotropic glutamate receptor 1 (Homo sapiens)"
observed_property = "%max"
result = 36


====

Below, each of the molecules is paired with its reported Fu value.
# Tested on: Plasma
# experiment-notes: Fraction unbound in rat plasma by rapid equilibrium dialysis binding assay
# Type: ADME, cell-free
observed-property: Fu

[[record]]
structure = "Cc1ccoc1C(=O)Nc1ccc(N2C(=O)c3cccc(F)c3C2=O)cc1F"
result = 0.011

[[record]]
structure = "Cc1ccoc1C(=O)Nc1ccc(N2C(=O)c3cccc(C)c3C2=O)cc1F"
result = 0.038

[[record]]
structure = "Cc1ccoc1C(=O)Nc1ccc(N2C(=O)c3ccc(Cl)cc3C2=O)cc1F"
result = 0.001

[[record]]
structure = "Cc1ccc2c(c1)C(=O)N(c1ccc(NC(=O)c3occc3C)c(F)c1)C2=O"
result = 0.009

[[record]]
structure = "Cc1ccoc1C(=O)Nc1ccc(N2C(=O)c3ccc(F)cc3C2=O)cc1F"
result = 0.011


====

# measurement-target: Metabotropic glutamate receptor 1 (Homo sapiens)
# experiment-notes: Positive allosteric modulation of human mGlu1 receptor at 10 uM by cell based calcium mobilization relative to glutamate
# Assay type: functional
Below, each of the molecules is paired with its reported %max value.
observed-property: %max (%)

[[record]]
structure = "Cc1cccc2c1C(=O)N(c1ccc(NC(=O)c3ncsc3C)c(F)c1)C2=O"
result = 17

[[record]]
structure = "Cc1ccoc1C(=O)Nc1ccc(N2C(=O)c3ccc(F)cc3C2=O)cc1F"
result = 81

[[record]]
structure = "Cc1ccoc1C(=O)Nc1ccc(N2C(=O)c3ccc(Cl)cc3C2=O)cc1F"
result = 60

[[record]]
structure = "Cc1ccsc1C(=O)Nc1ccc(N2C(=O)c3ccccc3C2=O)c(Cl)c1"
result = 105

[[record]]
structure = "Cc1cn[nH]c1C(=O)Nc1ccc(N2C(=O)c3ccccc3C2=O)c(Cl)c1"
result = 107

[[record]]
structure = "Cc1ccc2c(c1)C(=O)N(c1ccc(NC(=O)c3[nH]ncc3C)cc1Cl)C2=O"
result = 106

[[record]]
structure = "Cc1ocnc1C(=O)Nc1ccc(N2C(=O)c3cccc(Cl)c3C2=O)c(Cl)c1"
result = 112

[[record]]
structure = "Cc1cn[nH]c1C(=O)Nc1ccc(N2C(=O)c3ccc(F)cc3C2=O)c(Cl)c1"
result = 106

[[record]]
structure = "Cc1ocnc1C(=O)Nc1ccc(N2C(=O)c3cccc(F)c3C2=O)c(Cl)c1"
result = 98

[[record]]
structure = "Cc1ocnc1C(=O)Nc1ccc(N2C(=O)c3cccc(Cl)c3C2=O)cc1F"
result = 27

[[record]]
structure = "Cc1ccc2c(c1)C(=O)N(c1ccc(NC(=O)c3ncoc3C)cc1Cl)C2=O"
result = 98

[[record]]
structure = "Cc1cn[nH]c1C(=O)Nc1ccc(N2C(=O)c3cccc(F)c3C2=O)c(Cl)c1"
result = 83

[[record]]
structure = "Cc1scnc1C(=O)Nc1ccc(N2C(=O)c3ccc(F)cc3C2=O)c(Cl)c1"
result = 98

[[record]]
structure = "Cc1ccc2c(c1)C(=O)N(c1ccc(NC(=O)c3ncsc3C)cc1Cl)C2=O"
result = 86

[[record]]
structure = "Cc1cccc2c1C(=O)N(c1ccc(NC(=O)c3ncoc3C)cc1Cl)C2=O"
result = 91

[[record]]
structure = "Cc1scnc1C(=O)Nc1ccc(N2C(=O)c3cccc(Cl)c3C2=O)c(Cl)c1"
result = 121

[[record]]
structure = "Cc1scnc1C(=O)Nc1ccc(N2C(=O)c3ccc(Cl)cc3C2=O)c(Cl)c1"
result = 91

[[record]]
structure = "Cc1cn[nH]c1C(=O)Nc1ccc(N2C(=O)c3cccc(C)c3C2=O)c(Cl)c1"
result = 110

[[record]]
structure = "Cc1ocnc1C(=O)Nc1ccc(N2C(=O)c3ccccc3C2=O)c(Cl)c1"
result = 100

[[record]]
structure = "Cc1ocnc1C(=O)Nc1ccc(N2C(=O)c3ccc(Cl)cc3C2=O)cc1F"
result = 25

[[record]]
structure = "Cc1ccoc1C(=O)Nc1ccc(N2C(=O)c3cccc(F)c3C2=O)cc1F"
result = 67

